Tested on: ENR+CD organoids (ISC to Paneth cell differentiation)
procedure-details: Primary screen: basal (non-stimulated) lysozyme secretion LYZ.NS, 2.5-D 384-well ENR+CD organoid differentiation
Format: cell-based, mouse
measurement-parameters: primary screen, dose 2.00 uM
// map Z.LYZ.NS (standard z score) onto a label; ranges band A: < -0.7; band B: ≥ -0.7 and < 0.2; band C: ≥ 0.2

The examples below pair each entry with its known result.
> print(dat)
                                   molecule                              assay.target  group.label
1  CCOC(=O)N1c2ccc(C(F)(F)F)cc2[C@@H](N(Cc2cc(C(F)(F)F)cc(C(F)(F)F)c2)C(=O)OC)C[C@H]1CC  ENR+CD organoids (ISC to Paneth cell differentiation)       band A
2  CC(C)(C#N)c1cc(Cn2cncn2)cc(C(C)(C)C#N)c1  ENR+CD organoids (ISC to Paneth cell differentiation)       band B
3  COc1cc(N2CCC(N3CCN(C)CC3)CC2)ccc1Nc1ncc(Cl)c(Nc2ccccc2P(C)(C)=O)n1  ENR+CD organoids (ISC to Paneth cell differentiation)       band A
4  CS(=O)(=O)c1ccc(-c2cnc(N)c(C(=O)Nc3ccccc3)n2)cc1  ENR+CD organoids (ISC to Paneth cell differentiation)       band C

Which Z.LYZ.NS (standard z score) band matches `CC#CCn1c(N2CCC[C@@H](N)C2)nc2c1c(=O)n(Cc1nc(C)c3ccccc3n1)c(=O)n2C` ? band B

Which Z.LYZ.NS (standard z score) band matches `CC(C)OC(=O)C1=CN(C(=O)c2ccc(F)c(F)c2)CC(C)(C)c2c1[nH]c1ccccc21` ? band B

Which Z.LYZ.NS (standard z score) band matches CC(C)N(CC[C@H](c1ccccc1)c1cc(CO)ccc1O)C(C)C [5-hydroxymethyl Tolterodine (PNU 200577, 5-HMT, 5-HM)] ? band C

Which Z.LYZ.NS (standard z score) band matches `COc1ccnc2[nH]cc(C(=O)C(=O)N3CCN(C(=O)c4ccccc4)C[C@H]3C)c12` ? band A

Which Z.LYZ.NS (standard z score) band matches C=C1C(=O)O[C@H]2[C@H]1CC/C(C)=C/CC[C@@]1(C)O[C@@H]21 [(−)-Parthenolide] ? band C

Which Z.LYZ.NS (standard z score) band matches `CC(C)C[C@@H](C(=O)N[C@H](C(=O)OC1CCCC1)c1ccccc1)[C@H](O)C(=O)NO` ? band B

Which Z.LYZ.NS (standard z score) band matches `C[C@@H]1CN(CC(=O)Nc2ccc3c(c2)Cc2cccc(-c4cc(=O)cc(N5CCOCC5)o4)c2S3)C[C@H](C)O1` ? band B

// data source = patent US20220323406A1
